System: PPC1
Assay: WST-1 cell growth assay (Table 3)
Type: cell-based
Settings: Homo sapiens, PPC-1, 72 h; PPC1 prostate, 3 days
pIC50: −log10 of the molar value.
Measured pIC50 by item

{"columns": ["compound.structure.string", "pIC50"],
 "data": [
  ["Nc1cc(=O)[nH]c(=O)n1[C@@H]1O[C@H](CO)[C@@H](O)[C@H]1O", "< 5.40"],
  ["[N-]=[N+]=Nc1cc(=O)[nH]c(=O)n1[C@@H]1O[C@H](CO)[C@@H](O)[C@H]1O", "< 5.40"]
]}

----------
The compounds listed here are annotated with their IC50.
Test system: T47D
Test: In vitro cell proliferation assay (WST.1, Table 5)
Format: cell-based
Details: Homo sapiens, 72 h, day 3

{"columns": ["compound", "test.system", "IC50"],
 "data": [
  ["N#Cc1cc(=O)[nH]c(=O)n1[C@@H]1O[C@H](CO)C(O)C1O (stereo partly drawn)", "T47D", "> 50 µM"],
  ["CN(C)c1cc(=O)[nH]c(=O)n1C1OC(CO)C(O)C1O (stereo not drawn)", "T47D", "> 50 µM"],
  ["CCOC(=O)c1cc(=O)[nH]c(=O)n1[C@@H]1O[C@H](CO)C(O)C1O (stereo partly drawn)", "T47D", "> 50 µM"]
]}

----------
Target: Mt ODCase (Methanothermobacter thermautotrophicus, UniProt O26232)
Sequence (O26232 whole entry): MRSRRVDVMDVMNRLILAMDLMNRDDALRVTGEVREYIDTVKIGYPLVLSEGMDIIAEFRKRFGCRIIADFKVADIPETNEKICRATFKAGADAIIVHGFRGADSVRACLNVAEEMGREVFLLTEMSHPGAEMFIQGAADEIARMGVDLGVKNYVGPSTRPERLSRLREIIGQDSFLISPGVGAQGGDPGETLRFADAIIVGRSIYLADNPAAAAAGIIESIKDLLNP
Experiment: biochemical
Parameters: species or system M. thermoautotrophicum
Conditions: reversible inhibition, 20 nM enzyme, 40 μM OMP
pKi: −log10 of the molar value.
Entries annotated with measured pKi
metric.name: pKi

{"columns": ["molecule", "metric.name", "endpoint.result"],
 "data": [
  ["CCc1c(F)c(=O)[nH]c(=O)n1C1OC(CO)C(O)C1O (stereo not drawn) [Iah]", "pKi", 4.54],
  ["O=c1[nH]c(=O)n([C@@H]2O[C@H](COP(=O)(O)O)[C@@H](O)[C@H]2O)cc1F [Compound 5-F-UMP, 5-F-UMP, reference compound]", "pKi", 3.19],
  ["[N-]=[N+]=Nc1c(F)c(=O)[nH]c(=O)n1[C@@H]1O[C@H](CO)[C@@H](O)[C@H]1O [Io, 5-fluoro-6-azido uridine]", "pKi", 6.45]
]}

----------
Test system: MCF7
Assay: In vitro cell proliferation assay (WST.1, Table 5)
Format: cell-based
Conditions: Homo sapiens, 72 h; MCF7, day 3

{"columns": ["compound", "IC50"],
 "data": [
  ["Cc1cc(=O)[nH]c(=O)n1C1CC(O)C(CO)O1 (stereo not drawn)", "> 50 µM"],
  ["CCc1c(F)c(=O)[nH]c(=O)n1C1OC(CO)C(O)C1O (stereo not drawn)", "31.4 µM"],
  ["CNc1cc(=O)[nH]c(=O)n1C1OC(CO)C(O)C1O (stereo not drawn)", "> 50 µM"],
  ["O=Cc1c(F)c(=O)[nH]c(=O)n1C1OC(CO)C(O)C1O (stereo not drawn)", "23.7 µM"],
  ["CN(C)c1cc(=O)[nH]c(=O)n1C1OC(CO)C(O)C1O (stereo not drawn)", "> 50 µM"],
  ["O=c1cc(I)n([C@@H]2O[C@H](CO)C(O)C2O)c(=O)[nH]1 (stereo partly drawn)", "> 50 µM"],
  ["CCOC(=O)c1cc(=O)[nH]c(=O)n1[C@@H]1O[C@H](CO)C(O)C1O (stereo partly drawn)", "> 50 µM"],
  ["N#Cc1cc(=O)[nH]c(=O)n1[C@@H]1O[C@H](CO)C(O)C1O (stereo partly drawn)", "> 50 µM"],
  ["Nc1cc(=O)[nH]c(=O)n1[C@@H]1O[C@H](CO)C(O)C1O (stereo partly drawn)", "> 50 µM"],
  ["CC(=O)OCC1OC(n2c(I)cc(=O)[nH]c2=O)C(O)C1O (stereo not drawn)", "4.4 µM"],
  ["Nc1c(F)c(=O)[nH]c(=O)n1[C@@H]1O[C@H](CO)[C@@H](O)[C@H]1O", "1.4 µM"],
  ["O=c1[nH]c(=O)n([C@@H]2O[C@H](CO)C(O)C2O)c(I)c1Br (stereo partly drawn)", "> 50 µM"]
]}
